Target Under Test: T1, canine beta-NGF (cNGF) (canine, UniProt Q29074 110-229 (pig entry))
T1 construct: also called canine NGF; can NGF
T1 chain: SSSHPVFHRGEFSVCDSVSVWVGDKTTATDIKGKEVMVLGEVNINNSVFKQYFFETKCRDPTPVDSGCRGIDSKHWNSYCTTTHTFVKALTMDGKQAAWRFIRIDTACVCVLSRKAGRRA
Experiment: SPR (Biacore), cNGF binding
Assay Readout: pKd
Just the number, please; pKd means minus log10 of the concentration in mol/L.

Entry 182m114 (antibody, V domains shown, 51 except in CDR2 (TASLHQ); 51 (CDR2 Pos. 1-6 = residues 51-56); also called Can-182-m114) VH: EVQLVESGGDLARPGGSLKLSCVVSGFTLTQYGINWVRQAPGKGLQWVTVIWATGATDYNSALKSRFTVSRDNAMNTVYLQMNSLRVEDTAVYYCARDGWWYATSWYFDVWGQGTLVTVSS VL: DIVMTQTPLSLSVSPGEPASISCKASQDINHYLNWFRQKPDGTVKLLIYYTASLHQGVPSRFSGSGSGTDFTLRISRVEADDAGVYYCQQGDHFPRTFGQGT has what pKd?
9.15
